Where do these numbers come from? They come from the supplement of paper PMC6897291.

Let's look at some molecules and their measured growth inhibition by drug plus 177Lu-lilotomab satetraxetan.
System: U-2932
EXPERIMENTAL PROTOCOL: growth inhibition by drug plus 177Lu-lilotomab satetraxetan (1 - RLU/untreated control) (fraction); higher = stronger inhibition
CONDITION PARAMETERS: 1000 nM; time (day): 6; 177Lu-lilotomab satetraxetan 1 ug/ml
ASSAY ENDPOINT: growth inhibition by drug plus 177Lu-lilotomab satetraxetan

MOLECULE: Cn1c(=O)c(F)c(Nc2ccc(I)cc2F)c2c(=O)n(C[C@@H](O)CO)cnc21
SUBJECT OF TEST: U-2932
RECORDED MEASUREMENT: 0.347

MOLECULE: CN(C)CCOc1ccc(-c2nc(-c3ccncc3)c(-c3ccc4c(c3)CC/C4=N\O)[nH]2)cc1
SUBJECT OF TEST: U-2932
RECORDED MEASUREMENT: 0.259

MOLECULE: Cc1ccc([N+](=O)[O-])cc1S(=O)(=O)N(C)/N=C/c1cnc2ccc(Br)cn12
SUBJECT OF TEST: U-2932
RECORDED MEASUREMENT: 0.985

MOLECULE: CNC(=O)c1ccc(C)c(-n2c(C)cc(OCc3ccc(F)cc3F)c(Br)c2=O)c1
SUBJECT OF TEST: U-2932
RECORDED MEASUREMENT: 0.294

MOLECULE: COc1cc2ncnc(Nc3ccc(F)c(Cl)c3)c2cc1NC(=O)/C=C/CN1CCCCC1
SUBJECT OF TEST: U-2932
RECORDED MEASUREMENT: 0.0995

MOLECULE: C[C@]12CCC(=O)C=C1CC[C@@H]1[C@@H]2[C@@H](O)C[C@@]2(C)[C@H]1CC[C@]2(O)C(=O)CO [Hydrocortisone (Cortisol)]
SUBJECT OF TEST: U-2932
RECORDED MEASUREMENT: 0.362

MOLECULE: CC1(C)CNc2cc(NC(=O)c3cccnc3NCc3ccncc3)ccc21 [Motesanib Diphosphate]
SUBJECT OF TEST: U-2932
RECORDED MEASUREMENT: 0.0914

MOLECULE: Nc1nc(Cl)nc2c1ncn2[C@H]1C[C@H](O)[C@@H](CO)O1 [Cladribine]
SUBJECT OF TEST: U-2932
RECORDED MEASUREMENT: 0.989
